Tested on: UACC-257 melanoma
experiment: NCI-60 one-dose screen, 48 h (100 = growth as untreated, 0 = no growth, -100 = all killed)
experimental-context: 10 µM unless noted
This is part of a sample that, as a whole, favours compounds with a hit. Of some 83,000 tested, about 20% had one in any assay. Calls of active or inactive are those of the source. How the source made its calls: active means growth percent below 10; inactive means the rest.
value-kind: growth

Guide cases for growth, answers given:
CC(=O)c1cccc(NS(=O)(=O)c2cccc(C(=O)Nc3ccc(Br)cc3)c2)c1    36.4% [25 µM] (inactive)
O=C1Nc2c(ccc(Cl)c2Cl)/C1=C/c1ccc([N+](=O)[O-])cc1    72% (inactive)
CO[C@@H]1[C@H](N(C)C(=O)c2ccccc2)C[C@@H]2O[C@]1(C)n1c3ccccc3c3c4c(c5c6ccccc6n2c5c31)C(=O)NC4=O    61.5% (inactive)

Value of measured growth for the entry Nc1nnc2cc(Cl)ccc2n1 : 127% (inactive)

====

Attribute: growth
Test system: CAKI-1 renal
experiment: NCI-60 one-dose screen, 48 h (100 = growth as untreated, 0 = no growth, -100 = all killed)
experimental-context: 10 µM unless noted
About 83,000 compounds went through this panel and 20% of them were active in at least one assay; those are over-represented in the sample as a whole.
State just the number; it will be interpreted in %.

CCOC(=O)c1c(O)cc(-c2ccccc2)cc1-c1sc(N(C)Cc2ccccc2)nc1Cl    87.9
Cc1[nH]n(-c2cccc(Cl)c2)c(=O)c1/C=C1\C=Nc2ccc(Br)cc21    22.4
Cn1ncc2c(Nc3ccccc3Cl)nc(Cl)nc21    99.9
COC(=O)N[C@H]1CCc2cc(OC)c(OC)c(OC)c2-c2ccc(SC)c(=O)cc21    17

Short answer for CCCCCCCCOC(=O)c1ccc(O)c(OC)c1 : growth was 91.9

Record COc1cc(-c2nc3sccn3c2-c2ccnc(NCCNS(=O)(=O)c3ccc(F)cc3)n2)ccc1F . Reported growth: 8.83

compound CN(Cc1ccccc1)c1nc(Cl)c(C2CC(c3ccc(Cl)cc3)=Cc3[nH][nH]c(=O)c32)s1 (configuration not stated) , growth observed: 86.2

// recorded growth for COc1ccc(C2CC(c3cccc(Nc4ccncc4)c3)=NN2c2cc(Cl)cc(Cl)c2)cc1 (configuration not stated) : 33.3

Reported growth for Nc1nnc2cc(Cl)ccc2n1 was 112

Recorded growth (compound CCC(C)C(N)C(=O)NNc1n[nH]c(=S)n1N (configuration not stated) ): 91

Briefly, growth measured for CN1CCN(c2c(F)cc(NC3=C(Cl)C(=O)c4ncccc4C3=O)cc2F)CC1 : 62.2

Noted for Clc1ccc(C2CC(c3cccc(Nc4ccncc4)c3)=NN2c2ccc(Cl)cc2)cc1 (configuration not stated) : its growth reads -59.6

So, COc1cc(C2CC(c3cccc(Nc4ccncc4)c3)=NN2c2ccccc2)cc(OC)c1OC (configuration not stated) ? Its growth was 43.6

Kindly note the recorded growth for O=C(/C=C\c1ccc(OCCCCCC[P+](c2ccccc2)(c2ccccc2)c2ccccc2)cc1)c1ccc2c(c1)OCCO2 , which is 2.91

growth for C1=C2CNCC3=Cc4ccc5ccccc5c4OC23Oc2c1ccc1ccccc21 is 31.1

Data point: CSc1nc(O)c(-c2ccccc2)c(=O)[nH]1 ; growth = 93.6

Short answer for COc1cc(-c2cc(=O)oc3cc(O)ccc23)c(OC)c2c1OCO2 : growth was 76.9

Form field growth, entry CCN1C(=O)N(CC)C2C1NN=c1s/c(=C3\C(=O)Nc4ccccc43)c(=O)n12 (configuration not stated) : 35.5
